- tested on: human Peroxisome Proliferator-activated Receptor alpha (PPARa), PPARA (gene 5465) (UniProt Q07869)
- Sequence (Q07869 whole entry, looked up): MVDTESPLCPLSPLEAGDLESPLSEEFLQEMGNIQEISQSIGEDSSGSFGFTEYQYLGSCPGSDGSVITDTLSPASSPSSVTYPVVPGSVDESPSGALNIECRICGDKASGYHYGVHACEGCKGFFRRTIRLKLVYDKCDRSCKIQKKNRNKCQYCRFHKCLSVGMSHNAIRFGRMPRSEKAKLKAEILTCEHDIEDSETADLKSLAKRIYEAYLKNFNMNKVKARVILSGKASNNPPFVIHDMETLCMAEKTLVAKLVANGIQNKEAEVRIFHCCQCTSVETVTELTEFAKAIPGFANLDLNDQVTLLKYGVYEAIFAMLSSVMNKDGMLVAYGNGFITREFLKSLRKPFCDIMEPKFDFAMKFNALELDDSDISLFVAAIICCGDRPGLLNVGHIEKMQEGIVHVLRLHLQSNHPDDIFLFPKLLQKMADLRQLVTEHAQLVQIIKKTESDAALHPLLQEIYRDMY
- method description: ATG_PPARa_TRANS: Attagene TRANS-FACTORIAL HepG2 Assay for human Peroxisome Proliferator-activated Receptor alpha (PPARa) (AID 2283001)
Inconclusive results are not listed. The source made the active and inactive calls. The calls were made as follows: active = hit-call score of the fitted dose curve at least 0.9, where 1 is the maximum; inconclusive = response in the unintended direction; inactive = score below 0.9.
Respond using exactly one of the listed classes: 1 = active, -1 = inactive

Worked cases, answers included:
INSERT INTO results (compound, cat) VALUES
  ('CCCCCCCCCCCCCCOS(=O)(=O)O', 1),
  ('O=C1c2c(O)cccc2Cc2cccc(O)c21', -1),
  ('CCCCCCCCCCCCCCCCO', -1),
  ('Cc1occc(=O)c1O', -1),
  ('CCCCC(CC)COC(=O)CCCCCCCC(=O)OCC(CC)CCCC (stereo not given)', -1),
  ('COc1ccc(OC(F)(F)F)cc1CN[C@H]1CCCN[C@H]1c1ccccc1', -1),
  ('O=C(Oc1ccccc1)c1cccc(C(=O)Oc2ccccc2)c1', -1),
  ('O=C(N[C@@H](c1ccccc1)[C@@H]1CCCCN1)c1cccc(C(F)(F)F)c1Cl', -1);

What was the test verdict on Cc1c(C)c2c(c(C)c1O)CCC(C)(COc1ccc(CC3SC(=O)NC3=O)cc1)O2 (stereo not given) ?
-1
